molecular target: FKBP52 (Homo sapiens); construct: Purified FK1-domains of FKBP51WT (4.5 nM) with F4 (3 nM), FKBP52WT (400 nM) with F2 (20 nM); implied by Ni-NTA purification) (N); made in house; host or cells: E. coli BL21(DE3)pLysS; assay: Fluorescence polarization binding assay, FK1-domain of FKBP52WT with tracer F2 (selectivity FKBP51 vs. FKBP52); details: selectivity factor over FKBP52; compounds B01-C25
Sequence (Q02790 50-138 limits assumed): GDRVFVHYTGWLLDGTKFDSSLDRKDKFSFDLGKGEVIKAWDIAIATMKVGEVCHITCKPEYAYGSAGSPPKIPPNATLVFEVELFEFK
endpoint: Ki(FKBP51)/Ki(FKBP52)

# annotated cases, reported Ki(FKBP51)/Ki(FKBP52) shown
INSERT INTO results (compound, assayed_target, value) VALUES
  ('COc1cc([C@@H](C(=O)N2CCCC[C@H]2C(=O)OC(C)(C)C)C2CCCCC2)cc(OC)c1OC', 'FKBP52 (Homo sapiens)', '+++ (>500 +++)'),
  ('COCCCCOC(=O)[C@@H]1CCCCN1C(=O)[C@H](c1cc(OC)c(OC)c(OC)c1)C1CCCCC1', 'FKBP52 (Homo sapiens)', '+++ (>500 +++)'),
  ('COc1cc([C@@H](C(=O)N2CCCC[C@H]2C(=O)NC2(C(N)=O)CC2)C2CCCCC2)cc(OC)c1OC', 'FKBP52 (Homo sapiens)', '++ (>50 ++)'),
  ('COc1cc([C@@H](C(=O)N2CCCC[C@H]2C(=O)N[C@@H](CCC(N)=O)C(N)=O)C2CCCCC2)cc(OC)c1OC', 'FKBP52 (Homo sapiens)', '+ (>5 +)'),
  ('COc1cc([C@@H](C(=O)N2CCCC[C@H]2C(=O)OC2C=CCCC2)C2CCCCC2)cc(OC)c1OC (mixture of isomers)', 'FKBP52 (Homo sapiens)', '++ (>50 ++)');

# input Identify measured Ki(FKBP51)/Ki(FKBP52) associated with `COc1cc([C@@H](C(=O)N2CCCC[C@H]2C(=O)NC2(C(N)=O)CCOCC2)C2CCCCC2)cc(OC)c1OC`
# output ++ (>50 ++)

# input Identify measured Ki(FKBP51)/Ki(FKBP52) associated with `COc1cc([C@@H](C(=O)N2CCCC[C@H]2C(=O)N[C@H](CCC(N)=O)C(N)=O)C2CCCCC2)cc(OC)c1OC`
# output ++ (>50 ++)

----------
Exercise: for every item that follows, state its recorded Ki.
Molecular target: FKBP51 (Homo sapiens, UniProt Q13451)
Test: Fluorescence polarization binding assay, FK1-domain of FKBP51WT with tracer F4
Design: Purified FK1-domains of FKBP51WT (4.5 nM) with F4 (3 nM), FKBP52WT (400 nM) with F2 (20 nM); made in house; host or cells: E. coli BL21(DE3)pLysS
Settings: compounds B01-C25; read-out: Affinity(Ki) for FKBP51
Procedure: The target protein was also diluted in this assay buffer at double the highest concentration required for the final sample. This protein stock was used for a 1:1 serial dilution. The inventive compound was dissolved in DMSO to reach a 100-times concentrated stock solution. This was used for a 1:1 serial dilution in DMSO. […] The competition curves were analyzed by using SigmaPlot9. […] Inhibition constants were measured in a fluorescence polarization binding assay by titrating the compounds.

# input Identify measured Ki associated with `COc1cc([C@@H](C(=O)N2CCCC[C@H]2C(=O)OC(C)C)C2CCCCC2)cc(OC)c1OC`
# output 0.1 to 1 µM

# input Identify measured Ki associated with `COc1cc([C@@H](C(=O)N2CCCC[C@H]2C(=O)NC(C)(C)CC(N)=O)C2CCCCC2)cc(OC)c1OC`
# output 1 to 10 µM

# input Identify measured Ki associated with COc1cc([C@@H](C(=O)N2CCCC[C@H]2C(=O)OC2C=CCCC2)C2CCCCC2)cc(OC)c1OC (mixture of isomers)
# output 1 to 10 µM

# input Identify measured Ki associated with `COc1cc([C@@H](C(=O)N2CCCC[C@H]2C(=O)OCCCOCc2ccccc2)C2CCCCC2)cc(OC)c1OC`
# output 1 to 10 µM

----------
Target: FKBP51 (Homo sapiens)
Sequence (Q13451 42-130 limits assumed): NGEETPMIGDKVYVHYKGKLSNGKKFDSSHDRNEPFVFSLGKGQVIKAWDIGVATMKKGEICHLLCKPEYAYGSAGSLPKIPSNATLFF
Test: Fluorescence polarization binding assay, FK1-domain of FKBP51WT with tracer F4
Parameters: Purified FK1-domains of FKBP51WT (4.5 nM) with F4 (3 nM), FKBP52WT (400 nM) with F2 (20 nM); made in house; host or cells: E. coli BL21(DE3)pLysS
Conditions: FK1-domain of FKBP51WT (4.5 nM) with F4 (3 nM); A series; read-out: Affinity(Ki) for FKBP51
endpoint: Ki

# input Identify measured Ki associated with COc1ccc(CC[C@@H](OC(=O)[C@@H]2CCCCN2C(=O)[C@H](c2cccc(F)c2)C2CCCCC2)c2cccc(OCC(=O)O)c2)cc1OC [Compound A36]
# output 1 to 10 µM

# input Identify measured Ki associated with COc1ccc(CCC(OC(=O)[C@@H]2CCCCN2C(=O)[C@H](NC(=O)c2ccccc2)C2CCCCC2)c2cccc(OCC(=O)O)c2)cc1OC (stereo partly drawn) [Compound A23]
# output 10 to 50 µM

# input Identify measured Ki associated with COc1ccc(OCCOC(=O)[C@@H]2CCCCN2C(=O)[C@H](c2cc(OC)c(OC)c(OC)c2)C2C=CCCC2)cc1OC (stereo in doubt) [Compound A14]
# output 0.1 to 1 µM

# input Identify measured Ki associated with C=CC[C@H](C(=O)N1CC=CC[C@H]1C(=O)O[C@H](CCc1ccc(OC)c(OC)c1)c1cccc(OCCN2CCOCC2)c1)c1cc(OC)c(OC)c(OC)c1 [Compound A06]
# output 10 to 50 µM

# input Identify measured Ki associated with COc1ccc(CCC(OC(=O)[C@@H]2CCCCN2C(=O)C(NC(=O)C2CCCCC2)C2CCCCC2)c2cccc(OCC(=O)O)c2)cc1OC (stereo partly drawn) [Compound A26]
# output 10 to 50 µM

# input Identify measured Ki associated with COc1ccc(CCC(NC(=O)[C@@H]2CCCCN2C(=O)[C@H](c2cc(OC)c(OC)c(OC)c2)[C@@H]2C=CCCC2)c2cccc(OCC(=O)O)c2)cc1OC (stereo partly drawn) [Compound A16]
# output 0.1 to 1 µM

----------
target: FKBP51 (Homo sapiens); experiment: Fluorescence polarization binding assay, FK1-domain of FKBP51WT with tracer F4; set-up: Purified FK1-domains of FKBP51WT (4.5 nM) with F4 (3 nM), FKBP52WT (400 nM) with F2 (20 nM); made in house; host or cells: E. coli BL21(DE3)pLysS; details: FK1-domain of FKBP51WT (4.5 nM) with F4 (3 nM); A series; read-out: Affinity(Ki) for FKBP51
Exercise: for every item that follows, state its recorded Ki.

# input Identify measured Ki associated with `COc1ccc(CC[C@@H](OC(=O)[C@@H]2CCCCN2C(=O)[C@@H](Cc2ccccc2)c2cc(OC)c(OC)c(OC)c2)c2cccc(OCC(=O)O)c2)cc1OC`
# output 10 to 50 µM

# input Identify measured Ki associated with COc1ccc(CCC(OC(=O)C2CCCN2C(=O)[C@H](c2cc(OC)c(OC)c(OC)c2)C2C=CCCC2)c2cccc(OCCN3CCOCC3)c2)cc1OC (stereo in doubt)
# output < 0.1 µM

# input Identify measured Ki associated with `COc1ccc(CC[C@@H](NC(=O)[C@@H]2CCCCN2C(=O)[C@H](c2cc(OC)c(OC)c(OC)c2)C2CCCCC2)c2cccc(OCC(=O)O)c2)cc1OC`
# output 0.1 to 1 µM

# input Identify measured Ki associated with COc1ccc(CC[C@@H](OC(=O)[C@@H]2CCCCN2C(=O)[C@@H](CC2CC2)c2cc(OC)c(OC)c(OC)c2)c2cccc(OCC(=O)O)c2)cc1OC [Reference A07]
# output 10 to 50 µM

----------
molecular target: FKBP51 (Homo sapiens, UniProt Q13451); test: Fluorescence polarization binding assay, FK1-domain of FKBP51WT with tracer F4; set-up: Purified FK1-domains of FKBP51WT (4.5 nM) with F4 (3 nM), FKBP52WT (400 nM) with F2 (20 nM); made in house; host or cells: E. coli BL21(DE3)pLysS; conditions: FK1-domain of FKBP51WT (4.5 nM) with F4 (3 nM); A series; read-out: Affinity(Ki) for FKBP51
pKi: −log10 of the molar value.
Exercise: for every item that follows, state its recorded pKi.

# input Identify measured pKi associated with COc1cc([C@@H](C(=O)N2CCCC[C@H]2C(=O)OC(CCCc2cccnc2)CCCc2cccnc2)[C@@H]2C=CCCC2)cc(OC)c1OC [Compound A13]
# output > 7.00

# input Identify measured pKi associated with C=CC[C@H](C(=O)N1CCCC[C@H]1C(=O)O[C@H](CCc1ccc(OC)c(OC)c1)c1cccc(OCC(=O)O)c1)c1cc(OC)c(OC)c(OC)c1 [Reference A01]
# output 4.30 to 5.00

# input Identify measured pKi associated with COc1ccc(CCC(OC(=O)C2CCCCN2C(=O)[C@H](c2cc(OC)c(OC)c(OC)c2)[C@@H]2C=CCCC2)c2cccc(OCCN3CCOCC3)c2)cc1OC (stereo in doubt) [Compound A12]
# output > 7.00

# input Identify measured pKi associated with COc1cc([C@@H](C(=O)N2CCCC[C@H]2C(=O)OC(CCCc2cccnc2)CCCc2cccnc2)C2CCCCC2)cc(OC)c1OC [Compound A19]
# output > 7.00

# input Identify measured pKi associated with COc1ccc(CCC(OC(=O)[C@@H]2CCCCN2C(=O)C(NC(=O)c2cc(Cl)cc(Cl)c2)C2CCCCC2)c2cccc(OCC(=O)O)c2)cc1OC (stereo partly drawn) [Compound A28]
# output 4.30 to 5.00

# input Identify measured pKi associated with COc1ccc(OCCOC(=O)[C@@H]2CCCCN2C(=O)[C@H](c2cc(OC)c(OC)c(OC)c2)C2CCCCC2)cc1OC [Compound A20]
# output 6.00 to 7.00
